Origin of measurements: ChEMBL document CHEMBL5291721

test.readout: AC50 (µM)
Your answer should be a plain number; it is taken to be in µM.

# return AC50 for CCC1(c2cccc(O)c2)CCCCN(C)C1 (centres undefined) [MEPTAZINOL] , test system: Muscarinic acetylcholine receptor M2 (Homo sapiens, UniProt P08172); also: assay procedure not described here
# Sequence (P08172 whole entry): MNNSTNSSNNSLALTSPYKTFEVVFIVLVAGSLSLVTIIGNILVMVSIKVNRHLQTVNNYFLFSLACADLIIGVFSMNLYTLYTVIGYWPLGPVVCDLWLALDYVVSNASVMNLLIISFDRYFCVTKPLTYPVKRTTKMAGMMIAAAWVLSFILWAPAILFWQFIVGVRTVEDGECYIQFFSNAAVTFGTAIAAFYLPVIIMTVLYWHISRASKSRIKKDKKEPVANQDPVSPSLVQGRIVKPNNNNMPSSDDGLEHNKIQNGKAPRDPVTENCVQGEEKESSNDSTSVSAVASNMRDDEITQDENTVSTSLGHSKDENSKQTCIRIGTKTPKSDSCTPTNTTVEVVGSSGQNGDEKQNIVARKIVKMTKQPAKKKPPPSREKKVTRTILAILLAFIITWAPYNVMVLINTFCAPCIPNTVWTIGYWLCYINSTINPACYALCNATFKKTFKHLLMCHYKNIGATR
20.9

# return AC50 for O=C(NC1CCN(CCCCC2(C(=O)NCC(F)(F)F)c3ccccc3-c3ccccc32)CC1)c1ccccc1-c1ccc(C(F)(F)F)cc1 [LOMITAPIDE] , test system: Muscarinic acetylcholine receptor M2 (Homo sapiens, UniProt P08172); also: assay procedure not described here
22.6

# return AC50 for CCCCN(CCCC)CCCOC(=O)c1ccc(N)cc1 [BUTACAINE] , test system: Muscarinic acetylcholine receptor M2 (Homo sapiens, UniProt P08172); also: assay procedure not described here
16.3

# return AC50 for Cc1c(-c2ccccc2)oc2c(C(=O)OCCN3CCCCC3)cccc2c1=O [FLAVOXATE] , test system: Muscarinic acetylcholine receptor M2 (Homo sapiens, UniProt P08172); also: assay procedure not described here
3.39

----------
Consider the following molecules; for each one, report its AC50.
# tested.system: Histamine H2 receptor (Homo sapiens, UniProt P25021); also: assay procedure not described here
# Sequence (P25021 whole entry): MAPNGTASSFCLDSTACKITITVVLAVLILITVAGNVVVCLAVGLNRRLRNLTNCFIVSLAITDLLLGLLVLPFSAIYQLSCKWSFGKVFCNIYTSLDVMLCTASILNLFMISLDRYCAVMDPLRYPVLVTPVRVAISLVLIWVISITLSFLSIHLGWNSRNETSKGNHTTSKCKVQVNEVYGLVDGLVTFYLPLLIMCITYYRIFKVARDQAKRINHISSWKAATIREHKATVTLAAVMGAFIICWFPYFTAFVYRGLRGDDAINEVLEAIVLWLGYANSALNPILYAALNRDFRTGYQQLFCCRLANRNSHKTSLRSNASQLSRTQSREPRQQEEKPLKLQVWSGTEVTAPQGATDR
# Format: functional, cell-based

Kindly indicate its recorded AC50. Item: C[C@]12CCC(=O)C=C1CC[C@@H]1[C@@H]2CC[C@@]2(C)[C@H]1CC[C@]2(C)O
> 30 µM

Kindly indicate its recorded AC50. Item: CC(C)(N)Cc1ccc(Cl)cc1
> 10 µM

Kindly indicate its recorded AC50. Item: CCCS(=O)(=O)Nc1ccc(F)c(C(=O)c2c[nH]c3ncc(-c4ccc(Cl)cc4)cc23)c1F
> 30 µM

Kindly indicate its recorded AC50. Item: CC(C)NCC(O)COc1ccc(COCCOC(C)C)cc1 (stereo not drawn)
> 10 µM

Kindly indicate its recorded AC50. Item: CN(C)C(=O)OC1N=C(c2ccccc2)c2cc(Cl)ccc2N(C)C1=O (stereo not drawn)
> 10 µM

Kindly indicate its recorded AC50. Item: CCCC(CCC)C(=O)O[C@H]1C[C@H]2CC[C@@H](C1)[N+]2(C)C
> 30 µM

Kindly indicate its recorded AC50. Item: C[N+](C)(C)CC(=O)O
> 30 µM

Kindly indicate its recorded AC50. Item: Cc1nc2ccc(CN(C)c3ccc(C(=O)N[C@@H](CCC(=O)O)C(=O)O)s3)cc2c(=O)[nH]1
> 30 µM

Kindly indicate its recorded AC50. Item: CCCCCCCCCCCC[N+](C)(C)CCOc1ccccc1
> 30 µM

Kindly indicate its recorded AC50. Item: CCCCCCC(C)(C)c1cc(O)c2c(c1)OC(C)(C)C1CCC(=O)CC21 (stereo not drawn)
> 30 µM

Kindly indicate its recorded AC50. Item: CC(=O)NS(=O)(=O)c1ccc(N)cc1 [SULFACETAMIDE]
> 10 µM

Kindly indicate its recorded AC50. Item: NC(=O)c1ncn([C@@H]2O[C@H](CO)[C@@H](O)[C@H]2O)c1O
> 30 µM

Kindly indicate its recorded AC50. Item: CCCC(=O)N1CCCN(c2nc(N)c3cc(OC)c(OC)cc3n2)CC1
> 30 µM

Kindly indicate its recorded AC50. Item: O=P(O)(O)C(O)(Cc1cccnc1)P(=O)(O)O
> 10 µM

Kindly indicate its recorded AC50. Item: C=C1C[C@@H]2[C@H](CC[C@]3(C)C(=O)CC[C@@H]23)[C@@]2(C)C=CC(=O)C=C12
> 10 µM

Kindly indicate its recorded AC50. Item: COCC1=C(C(=O)OC(C)OC(=O)OC(C)C)N2C(=O)[C@@H](NC(=O)/C(=N\OC)c3csc(N)n3)[C@H]2SC1 (stereo partly drawn)
> 30 µM

Kindly indicate its recorded AC50. Item: CN1CC(=O)N2[C@H](c3ccc4c(c3)OCO4)c3[nH]c4ccccc4c3C[C@@H]2C1=O
> 10 µM

Kindly indicate its recorded AC50. Item: C1COC(NC(C2CC2)C2CC2)=N1
> 10 µM
